# Tested on: M14
# test: NCI tumour cell line growth inhibition, 48 h
Calls of active or inactive are those of the source. Cut-off read from the data, not from the text of the source: active = GI50 up to about 1.1 µM and inactive = higher.
Hi! Could you answer with just one of these? T = active, F = inactive

Inquiry: Please share the test call associated with O=C1C(Cl)C(c2ccc(Cl)cc2)N1n1cnc2ccccc2c1=O (stereo not drawn) .
Reply text: F

Inquiry: Please share the test call associated with Cc1cccc2c(O)c3c(O)cc(O)cc3nc12 .
Reply text: F

Inquiry: Please share the test call associated with N#CC1=C(N)Oc2c(ccc3cccnc23)C1c1ccccc1 (stereo not drawn) .
Reply text: T

Inquiry: Please share the test call associated with NC(=O)c1cc2cc(Cl)cc(Cl)c2o/c1=N\c1ccc(F)cc1 .
Reply text: F

Inquiry: Please share the test call associated with CN1B(c2ccccc2)N(C)C(=O)N(C)C1=O .
Reply text: F

Inquiry: Please share the test call associated with CCN(/C=C1/C(=O)C(c2ccccc2)N(c2ccccc2)C1=O)CC (stereo not drawn) .
Reply text: F

Inquiry: Please share the test call associated with N=C(N)Nc1nc2cc(N)ccc2o1 .
Reply text: F

Inquiry: Please share the test call associated with O=C1c2c(Br)sc(Br)c2C(=O)C1(O)O .
Reply text: F

---

Data export: GI50 values recorded with HCT-15.

Inquiry: Fill blank: measured GI50 of the compound O=[N+]([O-])c1ccc(-c2nn3c(C45CC6CC(CC(C6)C4)C5)nnc3s2)c(Cl)c1 is ____.
Reply text: > 100 µM

Inquiry: Fill blank: measured GI50 of the compound Cn1cc2ccccc2c1-c1nc(N)nc(F)n1 is ____.
Reply text: > 100 µM

Inquiry: Fill blank: measured GI50 of the compound CC(=O)OCc1nnn2c1CCC2 is ____.
Reply text: > 100 µM

---

# Test system: U-251
# test: NCI tumour cell line growth inhibition, 48 h
Calls of active or inactive are those of the source. Rule as the data show it: active = GI50 up to about 1.1 µM and inactive = higher.
readout: GI50

Inquiry: Fill blank: measured GI50 of the compound COc1ccc2c(c1)C(=O)/C(=C/c1ccccc1)C2 is ____.
Reply text: > 100 µM (inactive)

Inquiry: Fill blank: measured GI50 of the compound CC1(O)CC2(O)C=CC3=C(C(=O)c4cccc(O)c4C3=O)C2(O)C(=O)C1O (stereo not given) is ____.
Reply text: 4.04 µM (inactive)

Inquiry: Fill blank: measured GI50 of the compound COCn1c(=O)n(C)c(=O)c2c1nc1c(c(=O)n(C)c(=O)n1COC)[n+]2[O-] is ____.
Reply text: 5.85 µM (inactive)

Inquiry: Fill blank: measured GI50 of the compound COc1cc(C2C(Cl)C(=O)N2c2c(C)n(C)n(-c3ccccc3)c2=O)ccc1O (stereo not given) is ____.
Reply text: 18 µM (inactive)

Inquiry: Fill blank: measured GI50 of the compound CCc1cccc(C(C)C)c1N1C(=O)C(=O)C(c2nc3ccccc3s2)C(=O)C1=O is ____.
Reply text: > 48.3 µM (inactive)

Inquiry: Fill blank: measured GI50 of the compound COc1cc(C[S+]([O-])c2ccc(O)cc2)cc(OC)c1OC (stereo not given) is ____.
Reply text: > 100 µM (inactive)

Inquiry: Fill blank: measured GI50 of the compound CCCCCCCCCCCCCP(=O)(O)NCC(N)=O is ____.
Reply text: 33.5 µM (inactive)

Inquiry: Fill blank: measured GI50 of the compound c1cnc2c(c1)Nc1cnncc1S2 is ____.
Reply text: > 100 µM (inactive)

Inquiry: Fill blank: measured GI50 of the compound O=C(O)C(F)(OC(F)(F)C(F)(OC(F)(F)C(F)(F)C(F)(F)F)C(F)(F)F)C(F)(F)F (stereo not given) is ____.
Reply text: > 100 µM (inactive)

Inquiry: Fill blank: measured GI50 of the compound COc1ccc(CN2C(=O)C(=O)N(C)C2=O)c2ccccc12 is ____.
Reply text: > 10 µM (inactive)

Inquiry: Fill blank: measured GI50 of the compound CN(C)c1ccc(/C=C(\NC(=O)c2ccccc2)c2nc3cncnc3[nH]2)cc1 is ____.
Reply text: > 100 µM (inactive)

Inquiry: Fill blank: measured GI50 of the compound Cc1nc(Nc2ccccc2)sc1C(=O)CC(=O)C(=O)NC12CC3CC(CC(C3)C1)C2 is ____.
Reply text: > 100 µM (inactive)

Inquiry: Fill blank: measured GI50 of the compound O=C(C#Cc1ccccc1)NC/C=C/c1ccccc1 is ____.
Reply text: 39 µM (inactive)

Inquiry: Fill blank: measured GI50 of the compound CC(=O)NC(C)(C)C1CCC(C)=C(c2ccccc2)C1 (stereo not given) is ____.
Reply text: 80 µM (inactive)

Inquiry: Fill blank: measured GI50 of the compound COC(=O)c1ccc(C(=O)OC)c2nc3cc(Cl)ccc3nc12 is ____.
Reply text: > 100 µM (inactive)

Inquiry: Fill blank: measured GI50 of the compound CCOC(=O)c1csc(NC(=O)CCN2CCCC2)n1 is ____.
Reply text: > 100 µM (inactive)

Inquiry: Fill blank: measured GI50 of the compound O=C(O)c1ccc(Nc2nc3cc(C(F)(F)F)ccc3nc2C(=O)O)cc1 is ____.
Reply text: > 100 µM (inactive)

Inquiry: Fill blank: measured GI50 of the compound CC(=O)c1cccc(NC(=O)C(=O)c2c(O)oc3ccccc3c2=O)c1 is ____.
Reply text: > 100 µM (inactive)

Inquiry: Fill blank: measured GI50 of the compound CC(=O)[C@@]1(O)CC[C@H]2[C@@H]3C[C@H](C)C4=CC(=O)CC[C@]4(C)[C@H]3[C@@H](O)C[C@@]21C is ____.
Reply text: > 100 µM (inactive)

Inquiry: Fill blank: measured GI50 of the compound CCOC(=O)c1cc(OC(=O)CC)c2c(OC)ccc(OC)c2c1 is ____.
Reply text: 53.6 µM (inactive)

Inquiry: Fill blank: measured GI50 of the compound COc1cccc(NC(=O)/C(CC(=O)CC(c2ccccc2)c2c(O)c3ccccc3oc2=O)=N\NC(C)(C)C)c1OC (stereo not given) is ____.
Reply text: > 100 µM (inactive)

Inquiry: Fill blank: measured GI50 of the compound COC(=O)CCc1cc(OC)c2c(c1)[C@H](C(=O)OC)[C@@H](c1ccc(O)c(OC)c1)O2 is ____.
Reply text: 38.4 µM (inactive)

Inquiry: Fill blank: measured GI50 of the compound Cc1nc2nnc(C)n2c2c1C(=O)Nc1ccccc1N2 is ____.
Reply text: > 100 µM (inactive)

Inquiry: Fill blank: measured GI50 of the compound CC[C@@]1(OC(=O)CCC(=O)O)C(=O)OCc2c1cc1n(c2=O)Cc2cc3ccccc3nc2-1 is ____.
Reply text: 0.0303 µM (active)

Inquiry: Fill blank: measured GI50 of the compound COc1ccc(/C=C2/C(=O)C(c3ccccc3)N(c3ccccc3)C2=O)cc1OC (stereo not given) is ____.
Reply text: > 10 µM (inactive)

Inquiry: Fill blank: measured GI50 of the compound CC/C(=N/O)C(C)C(=O)CCC(=O)Nc1ccc(Cl)cc1 (stereo not given) is ____.
Reply text: > 100 µM (inactive)

Inquiry: Fill blank: measured GI50 of the compound COc1ccc(-c2cc(-c3ccco3)c(C#N)c(=S)n2C2OC(COC(C)=O)C(OC(C)=O)C(OC(C)=O)C2OC(C)=O)cc1 (stereo not given) is ____.
Reply text: 5.94 µM (inactive)

Inquiry: Fill blank: measured GI50 of the compound CC1CC/C(=C\c2ccc(F)cc2)C2=C1C(c1ccc(F)cc1)n1c(s/c(=C/c3cccc(Br)c3)c1=O)=N2 (stereo not given) is ____.
Reply text: > 100 µM (inactive)

Inquiry: Fill blank: measured GI50 of the compound C/C(CC(=O)Nc1ccc(C)c(C)c1)=N\NC(N)=O is ____.
Reply text: > 100 µM (inactive)

Inquiry: Fill blank: measured GI50 of the compound C/N=C(/NC)N(C)c1nc(=[N+](C)C)ss1.[O-][Cl+3]([O-])([O-])[O-] is ____.
Reply text: > 100 µM (inactive)

Inquiry: Fill blank: measured GI50 of the compound COC(=O)C1(C)CCCC2(C)c3cc(OC)ccc3C(=O)C(Br)C12 (stereo not given) is ____.
Reply text: > 10 µM (inactive)

Inquiry: Fill blank: measured GI50 of the compound CCN(/C=C1/C(=O)C(c2ccccc2)N(c2ccccc2)C1=O)CC (stereo not given) is ____.
Reply text: > 10 µM (inactive)

Inquiry: Fill blank: measured GI50 of the compound COC(=O)[C@@H]1Cc2ccc(OC)c(c2)OCCC(=O)N1 is ____.
Reply text: > 100 µM (inactive)

Inquiry: Fill blank: measured GI50 of the compound COC(=O)C1C(O)C(C(=O)OC)C(C)N(C)C1C (stereo not given) is ____.
Reply text: > 100 µM (inactive)

Inquiry: Fill blank: measured GI50 of the compound COc1ccc2nc(NC(=O)C(=O)C(C#N)c3ccc(CC#N)cc3)sc2c1 (stereo not given) is ____.
Reply text: > 100 µM (inactive)
